SUBJECT OF TEST: Human adrenergic α2A receptor (Homo sapiens, UniProt P08913)
Sequence (P08913 1-465): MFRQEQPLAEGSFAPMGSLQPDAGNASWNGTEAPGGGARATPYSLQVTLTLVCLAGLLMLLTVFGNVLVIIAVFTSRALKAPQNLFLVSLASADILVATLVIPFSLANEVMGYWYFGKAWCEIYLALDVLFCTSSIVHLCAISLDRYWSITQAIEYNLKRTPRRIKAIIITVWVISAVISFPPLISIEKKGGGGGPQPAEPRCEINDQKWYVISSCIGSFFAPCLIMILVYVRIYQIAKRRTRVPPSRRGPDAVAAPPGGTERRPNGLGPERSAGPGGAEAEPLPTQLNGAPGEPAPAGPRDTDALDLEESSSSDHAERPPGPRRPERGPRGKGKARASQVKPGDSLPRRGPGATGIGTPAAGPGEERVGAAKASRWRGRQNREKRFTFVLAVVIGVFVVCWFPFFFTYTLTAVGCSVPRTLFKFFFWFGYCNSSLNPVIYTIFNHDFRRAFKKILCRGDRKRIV
PROTOCOL DESCRIPTION: Radioligand binding, adrenergic α2A (Protocol Group B)
Set-up: purchased Milipore (Millipore)
RUN PARAMETERS: Protocol Group B; estimated Ki
pKi: −log10 of the molar value.
QUANTITY NAME: pKi

>>> df
                                   compound                           subject_of_test  value_measured
0  Cc1ccc2c(c1)c1c(n2CC(C)(O)c2ccnc(F)c2)CCN2CCCC12 (single isomer, unassigned) [48a]  Human adrenergic α2A receptor (Homo sapiens, UniProt P08913)            7.51
1  Cc1cc(C)c2c(c1)c1c(n2CC(C)(O)c2ccncc2)CCN2CCCC12 (single isomer, unassigned) [19a]  Human adrenergic α2A receptor (Homo sapiens, UniProt P08913)            7.79
2  Cc1cc(F)cc2c3c(n(CC(O)c4ccncc4)c12)CCN1CCCC31 (single isomer, unassigned) [136a]  Human adrenergic α2A receptor (Homo sapiens, UniProt P08913)            7.84
3  Cc1cc(F)c2c(c1)c1c(n2CC(O)c2ccncc2)CCN2CCCC12 (single isomer, unassigned) [137a]  Human adrenergic α2A receptor (Homo sapiens, UniProt P08913)            7.36
4  CCCOC(Cn1c2c(c3cc(C)ccc31)CN(C)CC2)c1ccncc1 (single isomer, unassigned) [42b]  Human adrenergic α2A receptor (Homo sapiens, UniProt P08913)            6.81
5  Cc1ccc2c(c1)c1c(n2CC(OCC2CCC2)c2ccncc2)CCN2CCCC12 (single isomer, unassigned) [138b]  Human adrenergic α2A receptor (Homo sapiens, UniProt P08913)            8.00
6  Cc1cc2c3c(n(CC(C)(O)c4ccncc4)c2cc1Cl)CCN1CCCC31 (single isomer, unassigned) [50a]  Human adrenergic α2A receptor (Homo sapiens, UniProt P08913)            8.17

* * *

# key: entry, value: inhibition at 0.03 µM
SUBJECT OF TEST: Human adrenergic α2B receptor (Homo sapiens)
PROTOCOL DESCRIPTION: Radioligand binding, adrenergic α2B (Protocol Group A)
Design: expressed in transfected cells; host or cells: CHO-K1
RUN PARAMETERS: 0.03 μM compound, [3H]Rauwolscine, read-out: percent inhibition of specific binding, Adrenergic α2B
QUANTITY NAME: inhibition at 0.03 µM (%)

>>> df
                                   compound          quantity_name  value_measured
0  Cc1ccc2c(c1)c1c(n2CC(OC(N)=O)c2ccncc2)CCN(C)C1 (stereo not shown)  inhibition at 0.03 µM              42
1  Cc1ccc2c(c1)c1c(n2CC(OC(=O)N2CCN(C)CC2)c2ccncc2)CCN(C)C1 (stereo not shown)  inhibition at 0.03 µM              13
2  Cc1ccc2c(c1)c1c(n2C(CC(C)(C)C)C(=O)c2ccncc2)CCN(C)C1 (stereo not shown)  inhibition at 0.03 µM             107
3  Cc1ccc2c(c1)c1c(n2CC(OC(=O)N2CCCC2)c2ccncc2)CCN(C)C1 (single isomer, unassigned)  inhibition at 0.03 µM              86

* * *

SUBJECT OF TEST: Human adrenergic α2A receptor (Homo sapiens, UniProt P08913)
PROTOCOL DESCRIPTION: Radioligand binding, adrenergic α2A (Protocol Group B)
Design: purchased Milipore (Millipore)
RUN PARAMETERS: 0.3 μM compound; Protocol Group B; 0.3 µM
QUANTITY NAME: Percentage inhibition of ligand binding, Adrenergic α2A (0.3 μM) (%)

In [3]: df
Out[3]:
                                   compound  value_measured
0  Cc1ccc2c(c1)c1c(n2CC(C)(O)c2cccnc2)CC(CO)N(C)C1 (single isomer, unassigned) [15b]               0
1  Cc1ccc2c(c1)c1c(n2CC(C)(O)c2ccc(N(C)C)nc2)CCN(C)C1 (stereo not shown) [compound 39]              19
2  Cc1ccc2c(c1)c1c(n2CC(OC2CCCC2)c2ccncc2)CCN(C)C1 (single isomer, unassigned) [35a]              86
3  Cc1ccc2c(c1F)c1c(n2CC(C)(O)c2cccnc2)CCN2CCCC12 (single isomer, unassigned) [87d]              79
4  CC(O)(Cn1c2c(c3cc(Cl)cc(F)c31)CN1CCCC1C2)c1cccnc1 (single isomer, unassigned) [63b]              13
5  OC(Cn1c2c(c3cc(F)ccc31)C1CCCN1CC2)c1ccncc1 (single isomer, unassigned) [18a]              38
6  Cc1cc(F)cc2c3c(n(CC(C)(O)c4cccnc4)c12)CC1CCCN1C3 (single isomer, unassigned) [76a]              12

* * *

SUBJECT OF TEST: Human adrenergic α2B receptor (Homo sapiens, UniProt P18089)
Sequence (P18089 whole entry): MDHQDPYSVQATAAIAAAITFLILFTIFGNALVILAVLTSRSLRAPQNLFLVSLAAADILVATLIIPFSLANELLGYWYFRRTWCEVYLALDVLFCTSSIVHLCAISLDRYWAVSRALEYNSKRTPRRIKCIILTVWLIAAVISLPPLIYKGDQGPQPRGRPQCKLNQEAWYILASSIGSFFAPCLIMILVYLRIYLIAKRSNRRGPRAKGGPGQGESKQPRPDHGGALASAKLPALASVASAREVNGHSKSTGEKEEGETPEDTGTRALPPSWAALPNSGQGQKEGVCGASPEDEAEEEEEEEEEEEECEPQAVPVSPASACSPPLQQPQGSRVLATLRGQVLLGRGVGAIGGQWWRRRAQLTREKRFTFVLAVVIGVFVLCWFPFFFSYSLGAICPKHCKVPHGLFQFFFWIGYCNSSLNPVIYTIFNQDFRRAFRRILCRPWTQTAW
PROTOCOL DESCRIPTION: Radioligand binding, adrenergic α2B (Protocol Group B)
Design: purchased Milipore (Millipore)
RUN PARAMETERS: 0.1 μM compound; Protocol Group B; 0.1 µM
QUANTITY NAME: Percentage inhibition of ligand binding, Adrenergic α2B (0.1 μM) (%)

                                   molecule  unit_of_measurement  value_measured
0  Cc1ccc2c(c1)c1c(n2CC(C)(O)c2cccnc2)CC2CCCN2C1 (stereo not shown) [41d]                    %              48
1  Cc1ccc2c(c1)c1c(n2CC(OC(N)=O)c2ccncc2)CCN(C)C1 (single isomer, unassigned) [8b]                    %              26
2  Cc1ccc2c(c1)c1c(n2CC(C)(O)c2cccnc2)CC(CO)N(C)C1 (single isomer, unassigned) [15b]                    %              16
3  Cc1ccc2c(c1)c1c(n2CC(C)(O)c2ccc(N(C)C)nc2)CCN(C)C1 (single isomer, unassigned) [39a]                    %              62

* * *

Below is a list of entries, each paired with its recorded Percentage inhibition of ligand binding, Adrenergic α2A (0.1 μM) value.
SUBJECT OF TEST: UniProt:P08913
PROTOCOL DESCRIPTION: Radioligand binding, adrenergic α2A (Protocol Group B)
Set-up: purchased Milipore (Millipore)
RUN PARAMETERS: 0.1 μM compound; Protocol Group B; 0.1 µM
QUANTITY NAME: Percentage inhibition of ligand binding, Adrenergic α2A (0.1 μM) (%)

>>> df
                                   compound  value_measured
0  Cc1cc(F)cc2c3c(n(CC(C)(O)c4ccncc4)c12)CC1CCCN1C3 (single isomer, unassigned) [78d]               2
1  CC(O)(Cn1c2c(c3cc(F)cc(Cl)c31)C1CCCN1CC2)c1ccncc1 (single isomer, unassigned) [88a]              52
2  CC(O)(Cn1c2c(c3cc(Cl)cc(F)c31)C1CCCN1CC2)c1cccnc1 (single isomer, unassigned) [53c]             −10
3  CC(O)(Cn1c2c(c3cc(F)ccc31)C1CCCN1CC2)c1cccnc1 (centres unmarked) [51a]              16
4  Cc1cc(C)c2c(c1)c1c(n2CC(C)(O)c2cccnc2)CCN2CCCC12 (single isomer, unassigned) [44b]              89
5  CC(O)(Cn1c2c(c3cc(F)ccc31)C1CCCN1CC2)c1cccnc1 (centres unmarked) [57a]             −12
6  CC(O)(Cn1c2c(c3cc(F)ccc31)C1CCCN1CC2)c1ccncc1 (single isomer, unassigned) [31c]               0
7  Cc1ccc2c(c1)c1c(n2CC(C)(O)c2ccncc2)CC2CCCN2C1 (single isomer, unassigned) [37b]              15
